Catalogue of molecules with associated IC50
TEST TARGET: c-Myc/Max/Ebox DNA (Homo sapiens, UniProt P01106)
Construct: his6 (cleaved yes)
Sequence (P01106 whole entry): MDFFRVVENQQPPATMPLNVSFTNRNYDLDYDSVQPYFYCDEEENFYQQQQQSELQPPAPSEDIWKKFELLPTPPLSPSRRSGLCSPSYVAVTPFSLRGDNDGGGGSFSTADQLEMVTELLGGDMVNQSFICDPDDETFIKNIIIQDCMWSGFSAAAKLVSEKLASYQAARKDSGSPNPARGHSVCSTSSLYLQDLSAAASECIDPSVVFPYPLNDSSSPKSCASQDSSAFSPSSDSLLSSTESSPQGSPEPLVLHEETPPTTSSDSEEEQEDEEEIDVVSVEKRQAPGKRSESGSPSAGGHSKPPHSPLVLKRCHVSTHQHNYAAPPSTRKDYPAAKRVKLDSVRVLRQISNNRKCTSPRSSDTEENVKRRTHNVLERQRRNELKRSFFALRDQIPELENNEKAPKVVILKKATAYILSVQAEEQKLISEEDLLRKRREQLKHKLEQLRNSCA
ASSAY NAME: c-Myc/Max/Ebox DNA AlphaScreen Assay
Format: binding
TEST PARAMETERS: Table 2, compounds of FIG. 1; calculated IC50 class

Answered cases to consult:
CCOC(=O)CCOCCOCCOCCOCCOCCOCCNCCC(=O)Nc1sc2c(c1-c1nc3ccccc3s1)CCNC2 : < 300 nM
COCCNCCC(=O)Nc1sc2c(c1-c1nc3cc(-c4ccncc4)ccc3s1)CCNC2C (single isomer, unassigned) [Compound 569] : 1000 to 10000 nM
CCOC(=O)Cn1cc(-c2ccc3sc(-c4c(NC(=O)CCNCCOC)sc5c4CCNC5)nc3c2)cn1 : < 300 nM
CC(C)N1CCc2c(sc(NC(=O)CCN3C(=O)C=CC3=O)c2-c2nc3ccccc3s2)C1 : > 10000 nM
COCCNCCC(=O)Nc1sc2c(c1-c1nc3cc(-c4ccnc(F)c4)ccc3s1)CCNC2 : < 300 nM

// IC50 lookup, key: COCCNCCC(=O)Nc1sc2c(c1-c1nc3ccccc3s1)C[C@H](C)NC2 300 to 1000 nM

Entry C=Cc1ccc2sc(-c3c(NC(=O)CCNC(C)C)sc4c3CCNC4)nc2c1 : reported IC50 = ? 300 to 1000 nM

----------
The entries below come with measured pIC50 values attached.
TEST TARGET: c-Myc/Max/Ebox DNA (Homo sapiens, UniProt P01106)
Construct: his6 (cleaved yes)
ASSAY NAME: c-Myc/Max/Ebox DNA AlphaScreen Assay
Format: binding
TEST PARAMETERS: Table 2, compounds of FIG. 1; calculated IC50 class
pIC50: −log10 of the molar value.

Sample records with pIC50:
CC[C@H](C)NCCC(=O)Nc1sc2c(c1-c1nc3cc(C(F)(F)F)ccc3s1)CCNC2 : > 6.52
CC(C)N1CCc2c(sc(NC(=O)CCNC(C)(C)C)c2-c2nc3ccccc3s2)C1 : 6.00 to 6.52
COCCNCCC(=O)Nc1sc2c(c1-c1nc3ccc(-c4cccnc4)cc3s1)CC(C)NC2C (single isomer, unassigned) [Compound 528] : 6.00 to 6.52
CCC1Cc2c(sc(NC(=O)CCNCCOC)c2-c2nc3ccccc3s2)C(CC)N1 (single isomer, unassigned) [Compound 536] : 6.00 to 6.52
CC(C)NCCC(=O)Nc1sc2c(c1-c1nc3cc(C4=CCOCC4)ccc3s1)CCNC2 : > 6.52

Would you mind telling me what pIC50 value was observed for COCCNCCC(=O)Nc1sc2c(c1-c1nc3ccc(-c4cccnc4)cc3s1)CC(C)NC2C (single isomer, unassigned) [Compound 520] ? 5.00 to 6.00

So what's the measured pIC50 for this one? CC(C)NCCC(=O)Nc1sc2c(c1-c1nc3cc(-n4cnc(Cl)c4)ccc3s1)CCNC2 > 6.52

----------
Each record here notes measured pIC50.
TEST TARGET: c-Myc/Max/Ebox DNA (Homo sapiens)
Construct: his6 (cleaved yes)
ASSAY NAME: c-Myc/Max/Ebox DNA AlphaScreen Assay
Assay type: binding
TEST PARAMETERS: Table 2, compounds of FIG. 1; calculated IC50 class
pIC50: −log10 of the molar value. Where a name gives a salt, the structure may show the parent alone.

The cases that follow already have their pIC50 on record.
COCCNCCC(=O)Nc1sc2c(c1-c1nc3cc(-c4cnn(C)c4)ccc3s1)CC(C)NC2C (single isomer, unassigned) [Compound 564] : > 6.52
CCC(C)NCCC(=O)Nc1sc2c(c1-c1nc3ccccc3s1)CCNC2 (stereo not drawn) : > 6.52
CC(C)NCCC(=O)Nc1sc2c(c1-c1nc3cc(-n4ccnc4)ccc3s1)CCNC2 [Compound 178, dihydrochloride] : > 6.52

Any idea what pIC50 was measured for CC[C@H](C)NCCC(=O)Nc1sc2c(c1-c1nc3cc(F)ccc3s1)CCNC2 [Compound 156, hydrochloride] ? > 6.52

Requested field: pIC50. Item: COCCNCCC(=O)Nc1sc2c(c1-c1nc3ccccc3s1)CC(C)NC2C (single isomer, unassigned) [Compound 508] 5.00 to 6.00

Would you kindly share the measured pIC50 for COCCNCCC(=O)Nc1sc2c(c1-c1nc3cc(-c4ccncc4)ccc3s1)C[C@H](C)N[C@@H]2C ? < 5.00

Dear colleague, I am looking for the recorded pIC50 of the following compound: CCC(C)NCCC(=O)Nc1sc2c(c1-c1nc3ccccc3s1)CC[N+](C)(C(C)C)C2 (stereo not drawn) > 6.52

What does the data say about its pIC50? Entry: COCCNCCC(=O)Nc1sc2c(c1-c1nc3cc(C(F)(F)F)ccc3s1)CC(C)NC2 (single isomer, unassigned) [Compound 551] > 6.52

Bench note: what pIC50 did CC(C)NCCC(=O)Nc1sc2c(c1-c1nc3cc(-c4ccncc4)ccc3s1)CCNC2 [Compound 160, dihydrochloride] show? 6.00 to 6.52

----------
TEST TARGET: c-Myc/Max/Ebox DNA (Homo sapiens, UniProt P01106)
Construct: his6 (cleaved yes)
ASSAY NAME: c-Myc/Max/Ebox DNA AlphaScreen Assay
Assay type: binding
TEST PARAMETERS: Table 2, compounds of FIG. 1; calculated IC50 class
Listed compounds paired with reported IC50

Use these answered entries as a reference point.
COCCNCCC(=O)Nc1sc2c(c1-c1nc3cc(F)ccc3s1)CC(C)NC2C (single isomer, unassigned) [Compound 546] : > 10000 nM
CCC(=O)NCCC(=O)Nc1sc2c(c1-c1nc3ccccc3s1)CCNC2 : 1000 to 10000 nM
CC[C@H](C)NCCC(=O)Nc1sc2c(c1-c1nc3cc(-c4ccncc4)ccc3s1)CCN(C1CCC1)C2 : < 300 nM
COCCNCCC(=O)Nc1sc2c(c1-c1nc3cc(-c4cnc(N)nc4)ccc3s1)CCNC2 : < 300 nM
CCC(C)N(CCC(=O)Nc1sc2c(c1-c1nc3ccccc3s1)CCN(CCNC(=O)C(F)(F)F)C2)C(C)=O (centres unmarked) : > 10000 nM

Which IC50 is listed for COCCNCCC(=O)Nc1sc2c(c1-c1nc3ccccc3s1)CCNC2 ? < 300 nM

Record request: IC50 value, item CC(C)NCCC(=O)Nc1sc2c(c1-c1nc3cc(C(=O)O)ccc3s1)CCNC2 300 to 1000 nM

Give its IC50 value. Item: COCCNCCC(=O)Nc1sc2c(c1-c1nc3cc(-c4cnc(OC)nc4)ccc3s1)CCNC2 < 300 nM

Which measured IC50 value corresponds to COCCNCCC(=O)Nc1sc2c(c1-c1nc3cc(C)ccc3s1)CCNC2 ? < 300 nM

Give the measured IC50 of CCC(C)NCCC(=O)Nc1sc2c(c1-c1nc3cc(-c4ccncc4)ccc3s1)CCNC2C (centres unmarked) . < 300 nM

Quick one: IC50 for COCCNCCC(=O)Nc1sc2c(c1-c1nc3cc(-c4cnoc4)ccc3s1)CCNC2 ? < 300 nM

Would you kindly share the measured IC50 for COCCNCCC(=O)Nc1sc2c(c1-c1nc3ccccc3s1)CC(C)NC2C (centres unmarked) [Compound 507] ? 300 to 1000 nM

Name the reported IC50 value associated with the compound CCc1cccc2nc(-c3c(NC(=O)CCNCCOC)sc4c3CCNC4)sc12 < 300 nM

For the compound shown here, COCCNCCC(=O)Nc1sc2c(c1-c1nc3c(NC4COC4)cccc3s1)CCNC2 , give the reported IC50. < 300 nM

Look up IC50 for this compound: CCC(C)NCCC(=O)Nc1sc2c(c1-c1nc3cc(C(F)(F)F)ccc3s1)CCN(C(C)C)C2 (centres unmarked) < 300 nM

Look up IC50 for this compound: CC(C)NCCC(=O)Nc1sc2c(c1-c1nc3c(-c4cnn(C)c4)cccc3s1)CCNC2 < 300 nM

Return reported IC50; argument: CC[C@H](C)NCCC(=O)Nc1sc2c(c1-c1nc3ccccc3s1)CCN(C1CC1)C2 > 10000 nM

----------
Listing of entries alongside the reported IC50.
TEST TARGET: c-Myc/Max/Ebox DNA (Homo sapiens)
Construct: his6 (cleaved yes)
ASSAY NAME: c-Myc/Max/Ebox DNA AlphaScreen Assay
Type: binding
TEST PARAMETERS: Table 2, compounds of FIG. 1; calculated IC50 class

Observe how each entry below is paired with its result.
COCCNCCC(=O)Nc1sc2c(c1-c1nc3cc(F)ccc3s1)CC(C)NC2C (single isomer, unassigned) [Compound 544] : < 300 nM
COCCNCCC(=O)Nc1sc2c(c1-c1nc3cc(-c4ccncc4)ccc3s1)CC(C)NC2C (single isomer, unassigned) [Compound 523] : 1000 to 10000 nM
COCCNCCC(=O)Nc1sc2c(c1-c1nc3cc(F)ccc3s1)CCNC2 : < 300 nM
COCCNCCC(=O)Nc1sc2c(c1-c1nc3cc(-c4cncc(F)c4)ccc3s1)CCNC2 : < 300 nM

Return reported IC50; argument: COCCNCCC(=O)Nc1sc2c(c1-c1nc3c(C(F)(F)F)cccc3s1)CCNC2 < 300 nM

Item under review: CC(C)N1CCc2c(sc(NC(=O)CCNCc3cn[nH]c3)c2-c2nc3ccccc3s2)C1 . Reported IC50? < 300 nM

Fill in the blank: the reported IC50 of CC(C)NCCC(=O)Nc1sc2c(c1-c1nc3c(-c4cccnc4)cccc3s1)CCNC2 is ____. < 300 nM

Given CC[C@@H](C)NCCC(=O)Nc1sc2c(c1-c1nc3cc(F)ccc3s1)CCNC2 , state its recorded IC50. < 300 nM

Which IC50 reading was recorded for the molecule CC[C@H](C)NCCC(=O)Nc1sc2c(c1-c1nc3cc(C(F)(F)F)ccc3s1)CCN(C(C)C)C2 ? 300 to 1000 nM

What IC50 value was documented for this molecule, CCN(C)CCC(=O)Nc1sc2c(c1-c1nc3ccccc3s1)CCN(C(C)C)C2 ? 300 to 1000 nM

Given the entry COc1ccc2sc(-c3c(NC(=O)CCNC(C)C)sc4c3CCNC4)nc2c1 , report its measured IC50. < 300 nM
